Every entry's value here was drawn from the nanobody polyreactivity screen of Harvey et al. (2022).

Procedure Summary: yeast display, Sf9 membrane polyspecificity reagent, FACS + sequencing; frameworks hold sequencing errors

{"columns": ["Sequence String", "polyreactivity (PSR sort gate)"],
 "data": [
  ["QVQLVESGGGLVQAGGSLRLSCAASGITFGYNAMGWYRQAPGKDRELVAAITRSAGSTGYADSVKGRFTISRDNAKNTVYLQMNSLKPEDTAVYYCAAVRLSGSHRYGYWGQGTQVTVSS", "high polyreactivity"],
  ["QVKLVESGGGLVQAGGSLRLSCAASGRTFKYYAMGWYRQAPGKERELVAAISWSGGSTYYADSVMGRFTISRDNAKNTVYLQMNSLKPEDTAVYYCAAVRNYHGTWYDYWGQGTQVTVSS", "high polyreactivity"],
  ["QVQLVESGGGLVQAGGSLRLSCAASGSIFVNNAMGLYRQAPGKERELVAAISSRSSRTFYADSVKGRFTISRDYAKNTVYLQMNSLKPEDTAVYYCAAELYGLKYGYYLSYDYWGQGTQVTVSS", "high polyreactivity"],
  ["QVQLVESGGGLVQAGGSLRLICAASGLTFRPNSMGWFRQAPGKERELVAAITWLGGRTYYADSVKGRFTISRDNSKNTVYLQMNSLKPEDTEVYYCSADSPYRGRQCPLNYGGDYWGQGTQVTVSS", "high polyreactivity"]
]}
